# Bliss excess listing for each entry below
- System: NCI-H358 (Lung Adenocarcinoma);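 further: after 72 h of two-drug dosing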
- measurement-protocol: Bliss excess, mean over the matrix (fraction); higher = more synergy
Give the figure only, with no unit attached.

# molecule, target, Bliss excess
data = [
    ("CC(=O)c1c(C)c2cnc(Nc3ccc(N4CCNCC4)cn3)nc2n(C2CCCC2)c1=O [Palbociclib] + CC1(C)CCC(CN2CCN(c3ccc(C(=O)NS(=O)(=O)c4ccc(NCC5CCOCC5)c([N+](=O)[O-])c4)c(Oc4cnc5[nH]ccc5c4)c3)CC2)=C(c2ccc(Cl)cc2)C1 [Venetoclax] (first compound max 10 µM, 7x7, partner max 1 µM)", "NCI-H358 (Lung Adenocarcinoma)", -0.0862),
]

Q. Entry under review: CN(CCO)CC[C@H](CSc1ccccc1)Nc1ccc(S(=O)(=O)NC(=O)c2ccc(N3CCC([C@@H](O)c4ccccc4-c4ccc(Cl)cc4)CC3)cc2)cc1S(=O)(=O)C(F)(F)F [AZD4320] + C=CCn1c(=O)c2cnc(Nc3ccc(N4CCN(C)CC4)cc3)nc2n1-c1cccc(C(C)(C)O)n1 [AZD1775] (first compound max 1 µM, partner max 1 µM) . Reported Bliss excess?
A. -0.0765
